Assay: anti-His antibody binders, primary screen, artefact control for SMM control protein annotation, biochemical, small-molecule microarray, 635 nm fluorescence (AID 1128);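 also: score merges feature fluorescence with signal-to-noise for each printed compound spot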
Conditions: anti-His Alexa647 antibody binding, higher = more signal
Respond with Yes for composite z-score values of 0.7 and above, No for values below.

See these solved cases before continuing.
Molecule: CNS(=O)(=O)c1ccc(C)cc1
Class name: No
--
Molecule: O=C(c1ccccc1)N1Cc2ccccc2C[C@@]2(COC(c3ccc(OCCCO)cc3)=N2)C1=O
Class name: Yes
--
Molecule: COc1ccc(C(O)C2C=CC3C(=O)N(Cc4ccccc4)C(=O)C3N2n2cnnc2)cc1OCc1ccccc1 (stereo unspecified)
Class name: No
--
Molecule: CC(C)C[C@@H]1NC(=O)[C@H](C(C)C)NC(=O)[C@@]23C(=O)N[C@@H](Cc4ccccc4)C2[C@H](C)[C@@]2(C)O[C@H]2C3/C=C/CC/C=C/CNC1=O (stereo partly specified)
Class name: No
--
Molecule: O=C1c2ccccc2[C@](Cc2ccccc2I)(C(=O)NCCN2CCOCC2)[C@H](c2ccc(CO)cc2)N1Cc1ccccc1Cl
Class name: Yes
--
Molecule: CN1C(=O)C2C=CC(C(O)C#Cc3ccccc3)N(N3CCCCC3)C2C1=O (stereo unspecified)
Class name: Yes

Could you tell me if the measured composite z-score of C[N+](C)(C)CCCC[C@@H]1NC(=O)[C@H]2C[C@@H](C(=O)NCCCCCCNC(=O)CS)[C@@H](c3cccc(OCCO)c3)N2C1=O reaches 0.7 or more? Yes

Please give the result for [N-]=[N+]=Nc1ccccc1[C@H]1OC(c2ccc(OCCCO)cc2)=N[C@@]1(CCS(=O)(=O)c1ccccc1)C(=O)NCC(O)CO (stereo partly specified) too. Yes

Same read-out for COc1cc(COC(C)=O)ccc1OC(C)=O ? No

Next molecule: CCN(CC)c1ccc(N2CC=CC34O[C@@H]5C=CCCOC(=O)C5[C@H]3C(=O)N(CCCCCCO)[C@@H]4C2=O)cc1 (stereo partly specified) Yes

Now give it for O=C1N(Cc2ccccc2)c2ccccc2[C@@H]2OC(c3ccc(OCCCO)cc3)=N[C@]12CCS(=O)(=O)c1ccccc1 too. No

Same question, CCOC(=O)C[C@H]1[C@H](OC(=O)c2ccc(C(=O)c3ccccc3)cc2)[C@@H](NC(=O)CC(C)C)c2cc(OCCCO)ccc2N1C(=O)c1ccc2ccccc2n1 this time Yes

Okay, and O=C(NCCO)C1=C[C@H](Oc2ccccc2I)[C@@H](O)[C@H](N(Cc2ccco2)C(=O)Cc2ccccc2)C1 ? No

Follow-up item: C=CCNC(=O)[C@H]1[C@@H]2C(=O)O[C@@H](c3ccccc3)[C@@H](c3ccccc3)N2[C@@H](c2ccccc2OCCO)[C@]12C(=O)Nc1ccc(C#CCC(C(=O)OC)C(=O)OC)cc12 Yes

Repeat for the following molecule: C#C[C@H](O[Si](C#Cc1ccc(Oc2ccccc2)cc1)(C(C)C)C(C)C)c1ccccc1 No

Now consider C=CC1(C(=O)OC)CC=C(C(=O)OC)CC1 (stereo unspecified) . Yes
